# System: UACC-62
# protocol-description: NCI tumour cell line growth inhibition, 48 h
Calls of active or inactive are those of the source. No stated cut-off is given here; in the data, active = GI50 up to about 1.1 µM and inactive = higher.
// one of active, inactive, no free text

Q. Any idea what this test logged for O=c1c(-c2ccccc2)c(SCCN2CCCCCC2)n(-c2ccccc2)c(=S)n1-c1ccccc1 ?
A. inactive

Q. Any idea what this test logged for O=C1c2ccc3ccccc3c2CCC1N1CCCCC1 (stereo not given) ?
A. inactive

Q. Any idea what this test logged for Cc1oc2c(c1C)S(=O)(=O)C(C#N)=CN2 ?
A. inactive

Q. Any idea what this test logged for COc1cc(C2c3cc4c(cc3OC(O)C2C)OCO4)cc(OC)c1OC (stereo not given) ?
A. active

Q. Any idea what this test logged for COc1ccc(/[N+]([O-])=C/c2ccccc2OC(=S)S)cc1 ?
A. inactive

Q. Any idea what this test logged for COc1cccc(N2C(=O)[C@H]3CC(C)c4c([nH]c5ccccc45)[C@H]3C2=O)c1 (stereo not given in full) ?
A. inactive

Q. Any idea what this test logged for COc1cccc2c1C(=O)c1c(O)c3c(c(O)c1C2=O)C[C@@](O)(C(C)=O)C[C@@H]3OC1CC(O)C(O)C(C)O1 (stereo not given in full) ?
A. active

Q. Any idea what this test logged for Cc1nc2c(o1)C(=O)c1ccccc1/C2=N/c1ccccn1 ?
A. inactive

Q. Any idea what this test logged for NC(=O)c1ccc([N+](=O)[O-])cc1 ?
A. inactive

Q. Any idea what this test logged for Nc1ccccc1SC(C[N+](=O)[O-])c1ccc2c(c1)OCO2 (stereo not given) ?
A. inactive
